RECORDED_ENDPOINT: melting point

molecule="CCONC(=O)Cc1ccc(-c2noc(C(F)(F)F)n2)cc1 [Compound 2.16]" meas_value="171 to 183 °C"
molecule="O=C(c1ccc(-c2noc(C(F)(F)F)n2)cc1)N1OC2CCC1CC2 [Compound 2.24]" meas_value="120 to 121 °C"
molecule="CONC(=O)Cc1ccc(-c2noc(C(F)(F)F)n2)cc1 [Compound 2.13]" meas_value="131 to 138 °C"
molecule="C=CCONC(=O)c1ccc(-c2noc(C(F)(F)F)n2)c(F)c1 [Compound 1.15]" meas_value="132 to 136 °C"
molecule="O=C(Cc1ccc(-c2noc(C(F)(F)F)n2)cc1)NOCc1ccccc1 [Compound 2.15]" meas_value="135 to 138 °C"
molecule="CON(C)C(=O)Cc1ccc(-c2noc(C(F)(F)F)n2)cc1F [Compound 1.19]" meas_value="104 to 106 °C"
molecule="O=C(Cc1ccc(-c2noc(C(F)(F)F)n2)cc1)NOCC(F)F [Compound 2.17]" meas_value="140 to 146 °C"
molecule="CCONC(=O)Cc1ccc(-c2noc(C(F)(F)F)n2)cc1F [Compound 1.21]" meas_value="81 to 83 °C"
molecule="C=CCONC(=O)Cc1ccc(-c2noc(C(F)(F)F)n2)cc1 [Compound 2.14]" meas_value="153 to 158 °C"
molecule="C=CCONC(=O)c1ccc(-c2noc(C(F)(F)F)n2)cc1 [Compound 2.12]" meas_value="134 to 135 °C"
molecule="CON(C(=O)c1ccc(-c2noc(C(F)(F)F)n2)cc1F)C(C)Cc1c(Cl)cc(Cl)cc1Cl (centres unmarked) [Compound 1.4]" meas_value="83.5 to 86.2 °C"
